biological target: UniProtKB P42345; experiment: mTOR enzyme assay (DELFIA format, His6-S6K substrate); assay type: biochemical; details: read-out: mTOR Kinase Median IC50
Reported Property: IC50

Worked examples follow.
{"Molecule": "CN1CCN(NC(=O)Nc2ccc3c(c2)C(=O)/C(=C/c2cn(C)c4nccc(N5CC6CCC(C5)O6)c24)O3)CC1 [Compound 221]", "IC50": "175 nM"}
{"Molecule": "COc1ccc2[nH]cc(/C=C3\\Oc4cc(O)cc(O)c4C3=O)c2n1 [Compound 26]", "IC50": "> 4000 nM"}
{"Molecule": "Cn1cc(/C=C2\\Oc3cccc(O)c3C2=O)c2c(-c3cccc(S(C)(=O)=O)c3)ccnc21 [Compound 75]", "IC50": "10.3 nM"}

Q: Find the measured IC50: item CN(C)Cc1ccc(-c2ccnc3c2c(/C=C2\Oc4cccc(O)c4C2=O)cn3C)cc1 [Compound 113] , target or system UniProtKB P42345.
Result: 20 nM

Q: // lookup IC50 | system=UniProtKB P42345 | key= CCOC(=O)Nc1ccc2c(c1)C(=O)/C(=C/c1cn(C)c3nccc(N4CCC(C(=O)N(C)C)CC4)c13)O2 [Compound 171]
Result: 66.5 nM

Q: Recorded IC50 for Cn1cc(/C=C2\Oc3cc(O)cc(O)c3C2=O)c2c(N3CCCCCC3)ccnc21 [Compound 65] with UniProtKB P42345, please?
Result: 0.6 nM

Q: What value of IC50 on UniProtKB P42345 does Cn1cc(/C=C2\Oc3ccc(NC(=O)Nc4cccnc4)cc3C2=O)c2c(C(=O)N3CCCCC3)ccnc21 [Compound 234] have?
Result: > 4000 nM

----------
Item-by-item account of melting point

Guide cases for melting point, answers given:
{"Compound": "CN(C)C(=O)c1cccc(-c2ccnc3c2c(/C=C2\\Oc4cccc(O)c4C2=O)cn3C)c1", "melting point": "220 to 223 °C"}
{"Compound": "Cn1cc(/C=C2\\Oc3cccc(O)c3C2=O)c2c(N3CCC(C(=O)N4CCOCC4)CC3)ccnc21", "melting point": "358 to 361 °C"}
{"Compound": "Cn1cc(/C=C2\\Oc3ccc(NC(=O)Nc4cccnc4)cc3C2=O)c2c(N3CC4CC3CO4)ccnc21 (stereo not shown)", "melting point": "218 to 222 °C (dec.)"}

Q: # input compound: COc1cccc(-c2ccnc3c2c(/C=C2\Oc4cc(O)cc(O)c4C2=O)cn3C)c1 ; wanted: its melting point
Result: 297 to 300 °C

----------
Reported values of melting point for individual entries

Example entries begin here.
{"Compound": "COCCC1CN(c2ccnc3c2c(/C=C2\\Oc4ccc(NC(=O)Nc5cccnc5)cc4C2=O)cn3C)CCO1 (stereo not drawn)", "melting point": "225 to 260 °C"}
{"Compound": "Cn1cc(/C=C2\\Oc3ccc(NC(=O)Nc4cccnc4)cc3C2=O)c2c(N3C4CCCC3COC4)ccnc21", "melting point": "240 to 245 °C (dec.)"}
{"Compound": "Cn1cc(/C=C2\\Oc3cccc(O)c3C2=O)c2c(N3CCC(C(=O)N4CC5CCC(C4)O5)CC3)ccnc21", "melting point": "264 to 268 °C"}

Q: I am curious: what melting point value has been reported for Cn1cc(/C=C2\Oc3ccc(NC(=O)Nc4cccnc4)cc3C2=O)c2c(N3CCC(C(=O)N4CCOCC4)CC3)ccnc21 ?
Result: 246 to 251 °C

Q: Can you share its melting point? I mean this compound: C[C@@H]1CN(C(=O)C2CCN(c3ccnc4c3c(/C=C3\Oc5cccc(O)c5C3=O)cn4C)CC2)C[C@H](C)O1
Result: 162 to 166 °C

Q: Bench note: what melting point did Cn1cc(/C=C2\Oc3ccc(NC(=O)Nc4cccnc4)cc3C2=O)c2c(N3CC4COC(C3)O4)ccnc21 (stereo not drawn) show?
Result: 224 to 227 °C (dec.)

Q: Return reported melting point; argument: Cn1cc(/C=C2\Oc3cccc(O)c3C2=O)c2c(N3CCCC(C(=O)N4CCCC4)C3)ccnc21 (stereo not drawn)
Result: 235 to 240 °C

Q: Suppose we examine the compound Cn1cc(/C=C2\Oc3cc(O)cc(O)c3C2=O)c2c(Oc3ccccc3)ccnc21 ; what melting point value has been reported?
Result: 330 to 332 °C

Q: # melting point lookup, item Cn1cc(/C=C2\Oc3cccc(O)c3C2=O)c2c(-c3ccccc3)ccnc21
Result: 274 to 275 °C

Q: Which measured melting point value corresponds to CN(C)CCCNC(=O)Nc1ccc2c(c1)C(=O)/C(=C/c1cn(C)c3nccc(N4CC5CCC(C4)O5)c13)O2 ?
Result: 261 to 263 °C

Q: Find the recorded melting point belonging to Cn1cc(/C=C2\Oc3ccc(NC(=O)Nc4cccnc4)cc3C2=O)c2c(N3C4CCC3COC4)ccnc21 and report it.
Result: 250 to 255 °C (dec.)

Reference source for all entries: patent US20090298820A1
